Reported Relative activity (the EC50 ratio of Cagrilintide to the compound) is given for each of the following binders.
Target: T1, human amylin receptor (AMY3) on CHO-K1/Ga15/AMY3 amylin receptor/CRE-luc cells (human, UniProt P30988 25-474; O60896 24-148)
T1 sequence (looked up) 1: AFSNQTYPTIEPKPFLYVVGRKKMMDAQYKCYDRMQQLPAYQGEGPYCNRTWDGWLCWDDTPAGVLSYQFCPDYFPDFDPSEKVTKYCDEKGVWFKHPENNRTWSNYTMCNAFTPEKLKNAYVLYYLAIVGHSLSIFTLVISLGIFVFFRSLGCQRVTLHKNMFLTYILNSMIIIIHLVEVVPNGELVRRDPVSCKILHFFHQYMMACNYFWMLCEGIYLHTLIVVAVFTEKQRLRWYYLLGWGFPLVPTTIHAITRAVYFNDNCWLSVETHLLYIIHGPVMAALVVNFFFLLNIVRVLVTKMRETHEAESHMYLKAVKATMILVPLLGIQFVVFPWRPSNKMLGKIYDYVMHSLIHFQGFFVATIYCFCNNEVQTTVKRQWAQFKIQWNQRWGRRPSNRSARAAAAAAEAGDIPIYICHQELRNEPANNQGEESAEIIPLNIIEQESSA
T1 sequence (looked up) 2: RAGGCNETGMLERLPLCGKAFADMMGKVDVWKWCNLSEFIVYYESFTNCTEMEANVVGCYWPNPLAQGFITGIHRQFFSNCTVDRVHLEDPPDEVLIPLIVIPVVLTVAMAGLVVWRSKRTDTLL
Test: cell-based or functional assay
Starred links: 1 amine or outer side, 2 acyl side, 3 side chain; linkers in the order of their positions; H or OH if unused. Non-standard residues stand in square brackets, D forms with d. Primed or numbered codes have the meaning given here. *: point of attachment. C20 diacid = O=C(O)CCCCCCCCCCCCCCCCCCC(=O)*; γGlu = O=C(O)[C@H](CCC(=O)[*:2])N[*:1]; Hyp = O=C(O)[C@@H]1C[C@@H](O)CN1; αMeN = C[C@](N)(CC(N)=O)C(=O)O; Inp′ = not defined here; Trx′ = not defined here; AEEA = NCCOCCOCC(=O)O
reported endpoint: Relative activity (the EC50 ratio of Cagrilintide to the compound) (%)

binder: {C20 diacid-Inp′}-ASQLSTAATQRLADFLRHFTDRDRDILPPTNVGSNTP-NH2 [polypeptide derivative M15]
units: %
measured number: 81
//
binder: {C20 diacid-Inp′-AEEA-AEEA}-ASQLSTAATQRLADFLRHFTDRDRDILPPTNVGSNTP-NH2 [polypeptide derivative M21]
units: %
measured number: 126
//
binder: {C20 diacid-γGlu}-ASQLSTAATQRLADFLRHSSN[αMeN]LKPILPPTNVGSNT[Hyp]-NH2 [polypeptide derivative M55]
units: %
measured number: 233
//
binder: {C20 diacid-Trx′-AEEA-AEEA}-ASQLSTAATQRLADFLRHFTDRDRDILPPTNVGSNTP-NH2 (reading uncertain) [polypeptide derivative M20]
units: %
measured number: 171
//
binder: {C20 diacid-Trx′}-ASQLSTAATQRLADFLRHFTDRDRDILPPTNVGSNTP-NH2 (reading uncertain) [polypeptide derivative M14]
units: %
measured number: 136
